Would you kindly list Kd for each of these binders?
Molecular target: T1, huNectin4-His (human, UniProt Q96NY8 32-349)
T1 construct: Immobilized on the SPR chip; also called humanNectin4; human Nectin4; not shown: His tag
T1 sequence (looked up): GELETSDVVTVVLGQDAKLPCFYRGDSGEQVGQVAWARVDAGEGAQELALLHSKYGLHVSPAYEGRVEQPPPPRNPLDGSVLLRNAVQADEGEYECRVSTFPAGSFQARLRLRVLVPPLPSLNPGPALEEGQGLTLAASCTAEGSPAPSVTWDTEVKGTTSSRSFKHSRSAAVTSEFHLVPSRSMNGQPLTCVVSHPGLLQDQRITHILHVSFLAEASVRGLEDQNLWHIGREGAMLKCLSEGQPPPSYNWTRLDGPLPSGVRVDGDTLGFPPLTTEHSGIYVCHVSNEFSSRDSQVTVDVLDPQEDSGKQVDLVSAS
Assay: SPR, huNectin4-His immobilized, pH 6.5
Kindly answer with a numeric value in nM, unit omitted.

Ask | Consider the binder BAP-143-00-03 (antibody, V domains shown, Used as a conjugate with a linker payload (CAB ADC)) VH: EVQLVESGGGLVQPGGSLRLSCAASGFTFSSYNMNWVRQAPGKGLEWVSYISSSSSTIYYADSVKGRFTISRDNAKNSLSLQMNSLRDEDTAVYYCARAYYYGMDVWGQGTTVTVSS VL: DIQMTQSPSSVSASVGDRVTITCRASQGISGWLAWYQQKPGKAPKFLIYAASTLQSGVPSRFSGSGSGTDFTLTISSLQPEDFATYYCQQANSFPDTFGGGTKVEIK and give its recorded Kd.
Reply | 2.97

Ask | Consider the binder BAP-143-00-05 (antibody, V domains shown, Used as a conjugate with a linker payload (CAB ADC)) VH: EVQLVESGGGLVQPGGSLRLSCAASGFTFSSYNMNWVRQAPGKGLEWVSYISSSSSTIYYADSVKGRFTISRDNAKNSLSLQMNSLRDEDTAVYYCAEAYYYGMDVWGQGTTVTVSS VL: DIQMTQSPSSVSASVGDRVTITCRASQGISGWLAWYQQKPGKAPKFLIYAASTLQSGVPSRFSGSGSGTDFTLTISSLQPEDFATYYCQQANSFPPTFGGGTKVEIK and give its recorded Kd.
Reply | 6.23

Ask | Consider the binder BAP-143-00-01 (antibody, V domains shown, Used as a conjugate with a linker payload (CAB ADC)) VH: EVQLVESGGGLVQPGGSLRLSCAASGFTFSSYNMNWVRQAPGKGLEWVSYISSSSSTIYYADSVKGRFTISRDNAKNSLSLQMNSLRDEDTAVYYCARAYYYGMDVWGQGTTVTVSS VL: DIQMTQSPSSVSASVGDRVTITCRASQGISGWEAWYQQKPGKAPKFLIYAASTLQSGVPSRFSGSGSGTDFTLTISSLQPEDFATYYCQQANSFPPTFGGGTKVEIK and give its recorded Kd.
Reply | 5.15
